The molecules below have reported AC50 for Glucocorticoid receptor (Homo sapiens, UniProt P04150).
endpoint_name: AC50

CCCOc1ccc(C(=O)OCCN(CC)CC)cc1N
> 30 µM
O=C(OCCN1CCOCC1)c1cccnc1Nc1cccc(C(F)(F)F)c1 [MORNIFLUMATE]
> 30 µM
CCN1CCC[C@H]1CNC(=O)c1cc(S(N)(=O)=O)ccc1OC [LEVOSULPIRIDE]
> 30 µM
O=C(CCCCC(=O)Nc1c(I)cc(I)c(C(=O)O)c1I)Nc1c(I)cc(I)c(C(=O)O)c1I [IODIPAMIDE]
> 10 µM
CCCCCCCCOc1ccccc1C(=O)Nc1ccc(C(=O)OCC[N+](C)(CC)CC)cc1 [OTILONIUM BROMIDE]
11 µM
COc1ccc2cccc(CCNC(C)=O)c2c1
> 30 µM
CN1CC(=O)N2[C@H](c3ccc4c(c3)OCO4)c3[nH]c4ccccc4c3C[C@@H]2C1=O
> 30 µM
CS(=O)(=O)c1ccc([C@@H](O)[C@@H](CO)NC(=O)C(Cl)Cl)cc1
> 30 µM
COC(=O)C1=C(C)NC(C)=C(C(=O)OCC(C)C)C1c1ccccc1[N+](=O)[O-] (stereo not drawn)
8.8 µM
C#C[C@]1(O)CC[C@H]2[C@@H]3CCC4=CCCC[C@@H]4[C@H]3CC[C@@]21C
> 30 µM
COc1c(N2CCNC(C)C2)c(F)cc2c(=O)c(C(=O)O)cn(C3CC3)c12 (stereo not drawn)
> 10 µM
COc1ccc2c(c1)c(CC(=O)OCC(=O)O)c(C)n2C(=O)c1ccc(Cl)cc1
> 30 µM
CC(C)(Oc1ccc(C2CC2(Cl)Cl)cc1)C(=O)O (stereo not drawn) [CIPROFIBRATE]
> 30 µM
COc1ccc(C(=O)NCc2ccc(OCCN(C)C)cc2)cc1OC [ITOPRIDE]
> 30 µM
NS(=O)(=O)c1cc(-c2nnn[nH]2)c(NCc2cccs2)cc1Cl [AZOSEMIDE]
> 30 µM
O=C(O)Cc1cn(-c2ccccc2)nc1-c1ccc(Cl)cc1
> 30 µM
CC1=CC(=O)c2ccccc2C1=O
> 30 µM
CC(=O)OCC(=O)[C@@]12OC3(CCCC3)O[C@@H]1C[C@H]1[C@@H]3CCC4=CC(=O)C=C[C@]4(C)[C@@]3(F)[C@@H](O)C[C@@]12C [AMCINONIDE]
0.016 µM
